target.or.test.system: E. coli SPase (Escherichia coli, UniProt P00803)
Sequence (P00803 whole entry): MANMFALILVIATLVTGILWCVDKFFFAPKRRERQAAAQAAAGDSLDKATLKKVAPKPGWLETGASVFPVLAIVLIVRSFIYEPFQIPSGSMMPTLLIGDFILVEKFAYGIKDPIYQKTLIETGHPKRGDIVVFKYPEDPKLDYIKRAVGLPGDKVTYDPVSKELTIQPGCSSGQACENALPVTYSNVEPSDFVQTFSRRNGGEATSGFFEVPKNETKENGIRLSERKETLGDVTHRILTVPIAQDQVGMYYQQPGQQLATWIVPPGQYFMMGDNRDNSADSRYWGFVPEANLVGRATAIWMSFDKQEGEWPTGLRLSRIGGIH
method.notes: Biochemical SPase activity assay (fluorogenic peptide substrate), E. coli enzyme
Square brackets hold non-standard residues; d marks the D form. Peptide text beside a SMILES is read from it. * marks the point of attachment. ξ: configuration not given here. boroAla((+)-pinanediol) = C[C@H](N*)B1O[C@@H]2C[C@@H]3C[C@@H](C3(C)C)[C@]2(C)O1; Biphenylcarbonyl(4'-Bu) = CCCCc1ccc(-c2ccc(C(=O)*)cc2)cc1; Thr(3ξ) = CC(O)[C@H](N)C(=O)O; boroGly = OB(O)CN*; βAla = NCCC(=O)O
metric: pIC50
Give only the number. pIC50 is defined as minus log10 of concentration in molar units.

The cases that follow already have their pIC50 on record.
CCCCc1ccc(-c2ccc(C(=O)N[C@@H](CCCCN)C(=O)N[C@@H](CCC(=O)OCC)C(=O)N[C@@H](C)C(=O)N[C@@H](CCCCN)C(=O)N[C@@H](C)B3O[C@@H]4C[C@@H]5C[C@@H](C5(C)C)[C@]4(C)O3)cc2)cc1 [Compound 261] ({Biphenylcarbonyl(4'-Bu)}-KE(OEt)AK-{boroAla((+)-pinanediol)})
7.39
CCCCc1ccc(-c2ccc(C(=O)N[C@@H](CCCNC(=N)N)C(=O)N[C@H](C(=O)N[C@@H](C)C(=O)N[C@@H](CCCCN)C(=O)N[C@@H](C)B3O[C@@H]4C[C@@H]5C[C@@H](C5(C)C)[C@]4(C)O3)[C@@H](C)O)cc2)cc1 [Compound 174] ({Biphenylcarbonyl(4'-Bu)}-RTAK-{boroAla((+)-pinanediol)})
7.23

Query string: Suppose we examine the compound CCCCc1ccc(-c2ccc(C(=O)NCCC(=O)N[C@@H](CCCCN)C(=O)N[C@H](C(=O)N[C@@H](C)C(=O)N[C@@H](CC(N)=O)C(=O)NCB(O)O)C(C)O)cc2)cc1 (stereo partly drawn) [Compound 118] ({Biphenylcarbonyl(4'-Bu)-βAla}-K[Thr(3ξ)]AN-boroGly) ; what pIC50 value has been reported?
Result string: 5.96

----------
target.or.test.system: E. coli SPase (Escherichia coli, UniProt P00803)
method.notes: Biochemical SPase activity assay (fluorogenic peptide substrate), E. coli enzyme
Square brackets hold non-standard residues; d marks the D form. Peptide text beside a SMILES is read from it. * marks the point of attachment. boroAla((+)-pinanediol) = C[C@H](N*)B1O[C@@H]2C[C@@H]3C[C@@H](C3(C)C)[C@]2(C)O1; Biphenylcarbonyl(4'-Bu) = CCCCc1ccc(-c2ccc(C(=O)*)cc2)cc1; X1 = C[C@H](N*)B1OC2C[C@@H]3C[C@@H](C3(C)C)[C@]2(C)O1; Benzoyl(4-(4-Cl-Ph)) = O=C(c1ccc(-c2ccc(Cl)cc2)cc1)*; Benzoyl(4-octyl) = CCCCCCCCc1ccc(C(=O)*)cc1; X16 = CC(C)(C)c1ccc(-c2ccc(C(=O)*)cc2)cc1; boroAla = C[C@H](N*)B(O)O; Dab = NCC[C@H](N)C(=O)O; Dap = NC[C@H](N)C(=O)O
metric: pIC50
Give only the number. pIC50 is defined as minus log10 of concentration in molar units.

The cases that follow already have their pIC50 on record.
C[C@H](NC(=O)[C@H](CCCCN)NC(=O)[C@H](C)NC(=O)[C@@H](NC(=O)[C@H](CCN)NC(=O)c1ccc(-c2ccc(C(C)(C)C)cc2)cc1)[C@@H](C)O)B1O[C@@H]2C[C@@H]3C[C@@H](C3(C)C)[C@]2(C)O1 [Compound 231] (X16-[Dab]TAK-{boroAla((+)-pinanediol)})
8.35
CCCCc1ccc(-c2ccc(C(=O)N[C@@H](CCCCN)C(=O)N[C@H](C(=O)N[C@@H](C)C(=O)N[C@@H](CC(N)=O)C(=O)N[C@@H](C)B3O[C@@H]4C[C@@H]5C[C@@H](C5(C)C)[C@]4(C)O3)[C@@H](C)O)cc2)cc1 [Compound 129] ({Biphenylcarbonyl(4'-Bu)}-KTAN-{boroAla((+)-pinanediol)})
7.85
CCCCCCCCc1ccc(C(=O)N[C@@H](CCN)C(=O)N[C@H](C(=O)N[C@@H](C)C(=O)N[C@@H](CCCCN)C(=O)N[C@@H](C)B2OC3C[C@@H]4C[C@@H](C4(C)C)[C@]3(C)O2)[C@@H](C)O)cc1 (stereo partly shown) [Compound 232] ({Benzoyl(4-octyl)}-[Dab]TAK-X1)
8.30

Query string: Suppose we examine the compound C[C@H](NC(=O)[C@H](CCCCN)NC(=O)[C@H](C)NC(=O)[C@H](CCCCN)NC(=O)[C@H](CN)NC(=O)c1ccc(-c2ccc(Cl)cc2)cc1)B(O)O [Compound 180] ({Benzoyl(4-(4-Cl-Ph))}-[Dap]KAK-boroAla) ; what pIC50 value has been reported?
Result string: 7.96
